The reported numbers originate from patent US6461997B1.

The entries below are paired with their reported Pre-emergence activity GR80, LAMPU.
- Tested on: LAMPU (purple deadnettle)
- method_description: Pre-emergence herbicidal activity, cool season
- Assay type: in vivo, Lamium purpureum
- test_context: lowest tested rate with 80% or greater inhibition; rates 300, 100, 30, 10 g/ha; about 14 days
# number only, unit g/ha dropped from output

Reference set (2 entries):
>>> numeric_readout("CN(C)C(=O)n1cnc(S(=O)(=O)C(F)F)n1")
300
>>> numeric_readout("CCN(CC)C(=O)n1cnc(S(=O)(=O)C(F)(F)C(F)F)n1")
100

If you can, please state the reported Pre-emergence activity GR80, LAMPU value of CN(Cc1ccccc1)C(=O)n1cnc(S(=O)(=O)C(F)F)n1 .
30

Can you handle C=CCN(C)C(=O)n1cnc(S(=O)(=O)C(F)F)n1 next?
10

Can you handle CN(C)C(=O)n1cnc(S(=O)(=O)C(F)(F)Cl)n1 next?
100
